# Assayed Target: Full-length human MNK1 (Homo sapiens, UniProt Q9BUB5, T385D)
# Construct: GST (N); purchased Carna Biosciences 02-145; host or cells: baculovirus expression system
# Sequence (Q9BUB5 1-424 isoform Q9BUB5-2 T344D): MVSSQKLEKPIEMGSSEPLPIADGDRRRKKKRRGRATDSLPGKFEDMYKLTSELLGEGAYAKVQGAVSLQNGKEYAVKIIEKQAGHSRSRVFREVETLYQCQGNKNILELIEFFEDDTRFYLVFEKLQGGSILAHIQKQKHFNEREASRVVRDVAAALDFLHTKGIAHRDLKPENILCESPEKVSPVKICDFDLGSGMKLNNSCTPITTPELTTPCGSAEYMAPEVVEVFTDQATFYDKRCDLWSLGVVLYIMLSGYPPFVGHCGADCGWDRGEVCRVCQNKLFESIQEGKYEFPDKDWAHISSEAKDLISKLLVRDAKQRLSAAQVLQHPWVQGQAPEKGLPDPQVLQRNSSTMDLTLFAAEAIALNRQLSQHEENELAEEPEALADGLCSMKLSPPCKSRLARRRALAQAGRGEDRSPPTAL
# Method: MNK1 biochemical IC50 assay (Caliper Mobility Shift Assay)
# Experimental Parameters: read-out: P(IC50) MNK1 (converted)
Kindly apply the following: 1 if IC50 is less than 100 nM, 0 in every other case.

# example entries with known answers
CC1(CCO)CN(c2ncnc3sc(C(=O)NC4CCOCC4)nc23)c2ccccc21 (centres unmarked) : 1
O=C(NCC1CCNCC1)c1nc2c(Nc3ccc(F)cc3OC3CCCC3)ncnc2s1 : 0
CC1(C)CN(c2ncnc3sc(C(=O)NCCCO)nc23)c2ccccc21 : 1

Dear colleague, could you confirm whether IC50 of NCCC1CN(c2ncnc3sc(C(=O)NC4CCOCC4)nc23)c2ccccc21 (centres unmarked) falls below 100 nM? Thanks.
1

----------
Here the recorded IC50 is given for each entry.
# System: phosphorylation of eIF4E at ser209 in MV4.11 cell line
# Method: MNK cellular activity phospho-eIF4E detection assay (Alphascreen Surefire)
# Type: cell-based
# Experimental Parameters: Homo sapiens; MV4.11 cell line, phospho-eIF4E (ser209) Alphascreen Surefire; read-out: P(IC50) elF4E (converted)
I only need the number, in nM, no unit after it.

Fill blank: measured IC50 of the compound O=C(NCC1CCNCC1)c1nc2c(N3CC(CO)c4ccccc43)ncnc2s1 (centres unmarked) [Example 135] is ____.
31.6

Try the compound CC1Cc2ccccc2N1c1ncnc2sc(C(=O)NCCCN(C)C)nc12 (centres unmarked) [Example 124]
31.6

Try the compound CN(C)CCNC(=O)c1nc2c(N3CCc4cc(F)ccc43)ncnc2s1 [Example 73]
15.8

Try the compound CNC(=O)c1nc2c(N3CCc4cc(C(F)(F)F)ccc43)ncnc2s1 [Example 158]
501

Try the compound CN(C)CCCNC(=O)c1nc2c(Nc3ccc(F)cc3O[C@@H]3CCCC[C@H]3O)ncnc2s1 [Example 15]
251

Try the compound CN1CCC(NC(=O)c2nc3c(N4CCc5cc([N+](=O)[O-])ccc54)ncnc3s2)CC1 [Example 45]
31.6

Try the compound CC(C)Oc1cc(F)ccc1Nc1ncnc2sc(C(=O)NCC3CNCCO3)nc12 (centres unmarked) [Example 4]
100

Try the compound NCCC1CN(c2ncnc3sc(C(=O)NCCC(F)(F)F)nc23)c2ccccc21 (centres unmarked) [Example 167]
15.8

----------
Here the recorded IC50 is given for each entry.
# Assayed Target: Full-length human MNK1 (Homo sapiens, UniProt Q9BUB5, T385D)
# Construct: GST (N); purchased Carna Biosciences 02-145; host or cells: baculovirus expression system
# Method: MNK1 biochemical IC50 assay (Caliper Mobility Shift Assay)
# Experimental Parameters: read-out: P(IC50) MNK1 (converted)
I only need the number, in nM, no unit after it.

Nc1nc2c(N3CCc4cc(F)ccc43)ncnc2s1 : 31.6

Fill blank: measured IC50 of the compound O=C(NC1CCOCC1)c1nc2c(N3CC4(CCCC4)c4ccccc43)ncnc2s1 is ____.
25.1

Try the compound CCOc1cc(F)ccc1Nc1ncnc2sc(C(=O)NCCCN(C)C)nc12
100

Try the compound O=C(NC1CCOCC1)c1nc2c(-n3ccc4ccccc43)ncnc2s1
50.1

Try the compound CNCCNC(=O)c1nc2c(N3CCc4cc(F)ccc43)ncnc2s1
10

Try the compound O=C(NC1CCOCC1)c1nc2c(N3CC(CCN4CCOCC4)c4cc(F)ccc43)ncnc2s1 (stereo not drawn)
100

Try the compound CC(C)Oc1cc(F)ccc1Nc1ncnc2sc(C(=O)NCC(O)CO)nc12 (stereo not drawn)
126

Try the compound O=C(NCCN1CCCC1)c1nc2c(N3CCc4cc(F)ccc43)ncnc2s1
6.31

Try the compound CN(C)CCCNC(=O)c1nc2c(Nc3ccc(F)cc3O[C@H]3CCCC[C@@H]3O)ncnc2s1
794

Recorded values, source patent US10669284B2.
